These measurements were taken from ChEMBL document CHEMBL5608163.

assay-info: Hemolytic activity in human erythrocytes measured after 1 hrs by microplate reader analysis
Format: toxicity, cell-based, Erythrocyte
Peptide text beside a SMILES is read from it. * marks the point of attachment. Undecanoyl = CCCCCCCCCCC(=O)*; Nonanoyl = CCCCCCCCC(=O)*
Friendly reminder: HC50 at 1 h below 60 µM is fulfilled, at or above is not fulfilled.

| compound | label |
| --- | --- |
| CCCCCCCCCCC(=O)NCC(=O)N[C@@H](CC(C)C)C(=O)N[C@@H](CC(C)C)C(=O)N[C@@H](CCCCN)C(=O)N[C@H](C(=O)N[C@H](C(=O)N[C@@H](CCCCN)C(=O)N[C@@H](CCCNC(=N)N)C(=O)N[C@@H](CC(C)C)C(=O)N[C@@H](CC(C)C)C(N)=O)[C@@H](C)CC)[C@@H](C)CC (Undecanoyl-GLLKIIKRLL-NH2) | fulfilled |
| CCCCCCCCC(=O)NCC(=O)N[C@@H](CC(C)C)C(=O)N[C@@H](CC(C)C)C(=O)N[C@@H](CCCCN)C(=O)N[C@H](C(=O)N[C@H](C(=O)N[C@@H](CCCCN)C(=O)N[C@@H](CCCCN)C(=O)N[C@@H](CC(C)C)C(=O)N[C@@H](CC(C)C)C(N)=O)[C@@H](C)CC)[C@@H](C)CC (Nonanoyl-GLLKIIKKLL-NH2) | not fulfilled |
| CCCCCCCCCCC(=O)NCC(=O)N[C@@H](CC(C)C)C(=O)N[C@@H](CC(C)C)C(=O)N[C@@H](CCCCN)C(=O)N[C@@H](CCCCN)C(=O)N[C@H](C(=O)N[C@@H](CCCCN)C(=O)N[C@@H](CCCNC(=N)N)C(=O)N[C@@H](CC(C)C)C(=O)N[C@@H](CC(C)C)C(N)=O)[C@@H](C)CC (Undecanoyl-GLLKKIKRLL-NH2) | fulfilled |
| CCCCCCCCCCC(=O)NCC(=O)N[C@@H](CC(C)C)C(=O)N[C@@H](CC(C)C)C(=O)N[C@@H](CCCCN)C(=O)N[C@H](C(=O)N[C@H](C(=O)N[C@@H](CCCCN)C(=O)N[C@@H](CCCCN)C(=O)N[C@@H](CC(C)C)C(=O)N[C@@H](CC(C)C)C(N)=O)[C@@H](C)CC)[C@@H](C)CC (Undecanoyl-GLLKIIKKLL-NH2) | fulfilled |
| CCCCCCCCCCC(=O)NCC(=O)N[C@@H](CC(C)C)C(=O)N[C@@H](CCCCN)C(=O)N[C@@H](CCCCN)C(=O)N[C@H](C(=O)N[C@H](C(=O)N[C@@H](CCCCN)C(=O)N[C@@H](CCCCN)C(=O)N[C@@H](CC(C)C)C(=O)N[C@@H](CC(C)C)C(N)=O)[C@@H](C)CC)[C@@H](C)CC (Undecanoyl-GLKKIIKKLL-NH2) | not fulfilled |
| CCCCCCCCC(=O)NCC(=O)N[C@@H](CC(C)C)C(=O)N[C@@H](CCCCN)C(=O)N[C@@H](CCCCN)C(=O)N[C@H](C(=O)N[C@H](C(=O)N[C@@H](CCCCN)C(=O)N[C@@H](CCCCN)C(=O)N[C@@H](CC(C)C)C(=O)N[C@@H](CC(C)C)C(N)=O)[C@@H](C)CC)[C@@H](C)CC (Nonanoyl-GLKKIIKKLL-NH2) | not fulfilled |
| CCCCCCCCCCC(=O)NCC(=O)N[C@@H](CC(C)C)C(=O)N[C@@H](CC(C)C)C(=O)N[C@@H](CCCCN)C(=O)N[C@@H](Cc1ccccc1)C(=O)N[C@H](C(=O)N[C@@H](CCCCN)C(=O)N[C@@H](CCCCN)C(=O)N[C@@H](CC(C)C)C(=O)N[C@@H](CC(C)C)C(N)=O)[C@@H](C)CC (Undecanoyl-GLLKFIKKLL-NH2) | not fulfilled |
